study.system: Factor X, P00742
Sequence (P00742 whole entry, looked up): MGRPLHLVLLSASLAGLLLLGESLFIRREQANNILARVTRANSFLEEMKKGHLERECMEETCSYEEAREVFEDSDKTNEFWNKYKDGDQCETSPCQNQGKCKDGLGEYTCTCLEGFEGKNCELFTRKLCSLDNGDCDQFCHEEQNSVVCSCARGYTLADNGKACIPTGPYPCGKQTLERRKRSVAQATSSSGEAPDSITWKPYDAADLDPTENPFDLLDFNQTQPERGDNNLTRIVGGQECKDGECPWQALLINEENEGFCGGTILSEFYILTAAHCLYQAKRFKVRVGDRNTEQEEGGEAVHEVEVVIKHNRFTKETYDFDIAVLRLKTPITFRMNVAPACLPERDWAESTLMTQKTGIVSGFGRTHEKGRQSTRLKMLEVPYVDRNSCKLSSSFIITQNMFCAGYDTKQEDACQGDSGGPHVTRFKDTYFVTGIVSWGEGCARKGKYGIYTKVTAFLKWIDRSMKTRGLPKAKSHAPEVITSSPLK
metric: kcat

{"protein": "FIXa-R318Y/R338E/R403E/E410N/T412A (protein) chain 1: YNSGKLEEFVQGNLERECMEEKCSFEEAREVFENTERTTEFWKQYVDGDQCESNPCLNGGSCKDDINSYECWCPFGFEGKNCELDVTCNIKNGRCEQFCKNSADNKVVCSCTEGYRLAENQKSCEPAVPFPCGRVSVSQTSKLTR chain 2: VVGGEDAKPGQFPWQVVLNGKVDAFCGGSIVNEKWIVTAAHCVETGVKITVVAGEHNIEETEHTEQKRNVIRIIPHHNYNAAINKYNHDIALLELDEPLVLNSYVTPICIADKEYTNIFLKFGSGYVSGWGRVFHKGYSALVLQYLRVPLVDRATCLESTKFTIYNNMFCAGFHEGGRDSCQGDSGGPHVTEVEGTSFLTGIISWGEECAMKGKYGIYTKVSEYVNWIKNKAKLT", "reported.result": "8.4 s⁻¹"}

Continue with the protein presented below.
Ask | // kcat lookup, key: FIXa-K247N/N249S/R338E/R403E/E410N (protein) chain 1: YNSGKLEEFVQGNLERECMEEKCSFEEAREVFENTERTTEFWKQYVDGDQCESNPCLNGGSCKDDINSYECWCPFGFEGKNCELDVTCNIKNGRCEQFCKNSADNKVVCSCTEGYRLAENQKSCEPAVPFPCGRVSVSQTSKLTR chain 2: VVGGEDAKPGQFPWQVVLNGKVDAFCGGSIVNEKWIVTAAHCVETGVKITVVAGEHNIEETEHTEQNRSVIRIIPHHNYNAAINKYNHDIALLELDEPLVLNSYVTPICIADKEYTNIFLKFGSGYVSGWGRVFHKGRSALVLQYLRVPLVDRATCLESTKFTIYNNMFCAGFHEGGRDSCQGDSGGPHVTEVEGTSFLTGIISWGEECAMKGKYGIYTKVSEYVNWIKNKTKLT
Reply | 4.8 s⁻¹
